Molecular target: Secreted effector protein (Yersinia pestis, UniProt O68720)
Sequence (O68720 whole entry): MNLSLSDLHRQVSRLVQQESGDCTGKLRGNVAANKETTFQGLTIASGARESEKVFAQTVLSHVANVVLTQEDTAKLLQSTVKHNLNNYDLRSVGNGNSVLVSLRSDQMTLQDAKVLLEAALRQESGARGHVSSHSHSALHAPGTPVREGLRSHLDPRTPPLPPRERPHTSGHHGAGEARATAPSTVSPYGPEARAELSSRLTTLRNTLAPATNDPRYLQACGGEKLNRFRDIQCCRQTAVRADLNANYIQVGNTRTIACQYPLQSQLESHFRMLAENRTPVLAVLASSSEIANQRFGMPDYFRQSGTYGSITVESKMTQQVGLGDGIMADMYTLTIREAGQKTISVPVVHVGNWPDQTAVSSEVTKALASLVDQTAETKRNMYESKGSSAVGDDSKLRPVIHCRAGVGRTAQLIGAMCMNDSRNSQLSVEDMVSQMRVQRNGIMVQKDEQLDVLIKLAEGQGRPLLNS
Assay: Inhibition of Yersinia pestis YopH after 15 mins by pNPP hydrolysis assay
property: IC50 (nM)

structure as smiles: O=C(O)c1cc(/C=N/OCCCCCCCCCCO/N=C/c2ccc(OCc3ccccc3)cc2)ccc1O
property: IC50
measurement: 2400
